run_conditions: 333.15 K; 101 kPa; Liquid
Exercise: state measured mass density for each of the molecules provided.
Numbers only here, please. The scale is kg/m3.

Prompt line: Give its mass density value. Item: c1ccccc1
Response line: 835.4

Prompt line: Please answer likewise for Cc1ccc(C)cc1
Response line: 825.6

Prompt line: Please answer likewise for CCc1ccccc1
Response line: 831.6

Prompt line: Please answer likewise for Cc1cccc(C)c1
Response line: 829.6

Prompt line: Please answer likewise for Cc1ccccc1
Response line: 829.1

Prompt line: Please answer likewise for Cc1ccccc1C
Response line: 847.1

----------
experiment_summary: mn = molality of the nth substance listed, in mol/kg
run_conditions: 328.15 K; 101 kPa; Liquid; m2 = 0
quantity_measured: mass density (kg/m3)
Numbers only here, please. The scale is kg/m3.

Prompt line: Give its mass density value. Item: Cc1ccccc1 [toluene] + CC1=CC(=O)c2ccccc2C1=O
Response line: 834

Prompt line: Please answer likewise for Cc1ccc(C)cc1 [1,4-dimethylbenzene] + CC1=CC(=O)c2ccccc2C1=O
Response line: 829.9

Prompt line: Please answer likewise for Cc1cccc(C)c1 [1,3-dimethylbenzene] + CC1=CC(=O)c2ccccc2C1=O
Response line: 833.7

Prompt line: Please answer likewise for c1ccccc1 [benzene] + CC1=CC(=O)c2ccccc2C1=O
Response line: 840.7

Prompt line: Please answer likewise for CCc1ccccc1 [ethylbenzene] + CC1=CC(=O)c2ccccc2C1=O
Response line: 835.9

Prompt line: Please answer likewise for Cc1ccccc1C [1,2-dimethylbenzene] + CC1=CC(=O)c2ccccc2C1=O
Response line: 851.2

----------
Exercise: state measured mass density for each of the compounds provided.
experiment_summary: mn = molality of the nth substance listed, in mol/kg
run_conditions: 318.15 K; 101 kPa; Liquid; m2 = 0
Numbers only here, please. The scale is kg/m3.

Prompt line: Give its mass density value. Item: c1ccccc1 [benzene] + CC1=CC(=O)c2ccccc2C1=O
Response line: 851.6

Prompt line: Please answer likewise for Cc1ccc(C)cc1 [1,4-dimethylbenzene] + CC1=CC(=O)c2ccccc2C1=O
Response line: 838.7

Prompt line: Please answer likewise for Cc1cccc(C)c1 [1,3-dimethylbenzene] + CC1=CC(=O)c2ccccc2C1=O
Response line: 842.4

Prompt line: Please answer likewise for CCc1ccccc1 [ethylbenzene] + CC1=CC(=O)c2ccccc2C1=O
Response line: 844.7

Prompt line: Please answer likewise for Cc1ccccc1 [toluene] + CC1=CC(=O)c2ccccc2C1=O
Response line: 843.5

Prompt line: Please answer likewise for Cc1ccccc1C [1,2-dimethylbenzene] + CC1=CC(=O)c2ccccc2C1=O
Response line: 859.7

----------
Exercise: state measured mass density for each of the molecules provided.
experiment_summary: mn = molality of the nth substance listed, in mol/kg
run_conditions: 308.15 K; 101 kPa; Liquid; m2 = 0
Numbers only here, please. The scale is kg/m3.

Prompt line: Give its mass density value. Item: Cc1ccccc1C [1,2-dimethylbenzene] + CC1=CC(=O)c2ccccc2C1=O
Response line: 867.7

Prompt line: Please answer likewise for CCc1ccccc1 [ethylbenzene] + CC1=CC(=O)c2ccccc2C1=O
Response line: 853.5

Prompt line: Please answer likewise for Cc1ccccc1 [toluene] + CC1=CC(=O)c2ccccc2C1=O
Response line: 852.9

Prompt line: Please answer likewise for c1ccccc1 [benzene] + CC1=CC(=O)c2ccccc2C1=O
Response line: 862.2

Prompt line: Please answer likewise for Cc1ccc(C)cc1 [1,4-dimethylbenzene] + CC1=CC(=O)c2ccccc2C1=O
Response line: 847.7

Prompt line: Please answer likewise for Cc1cccc(C)c1 [1,3-dimethylbenzene] + CC1=CC(=O)c2ccccc2C1=O
Response line: 851.1
